# EXPERIMENTAL_SYSTEM: SpAbp1-D1
# METHOD_DESCRIPTION: SPOT peptide array binding signal intensity (averaged, normalized) (arbitrary units (background-subtracted, floor 0; scale differs between SH3 domains)); higher = stronger binding of the SH3 domain to the peptide
Kindly return satisfied if reported SPOT peptide array binding signal intensity is no lower than 100; return not satisfied if it is lower.

Take a look at these entries with their results.
[
  {
    "BINDER": "KMSRSPPRPPSLKII",
    "LABEL_CLASS": "satisfied"
  },
  {
    "BINDER": "NIKVLLNPKLGKPVK",
    "LABEL_CLASS": "not satisfied"
  },
  {
    "BINDER": "MTKTPETSPPKRPMG",
    "LABEL_CLASS": "not satisfied"
  },
  {
    "BINDER": "TPEIPPPLPPKIMVH",
    "LABEL_CLASS": "not satisfied"
  },
  {
    "BINDER": "RTIRKLPLMSLSEYF",
    "LABEL_CLASS": "not satisfied"
  }
]

INPUT: Reported SPOT peptide array binding signal intensity reaches at least 100 for `QGYPRQPQRPQRYHP` ?
OUTPUT: not satisfied

INPUT: Next binder up: `LLLLFVPDSPYDPAI`
OUTPUT: not satisfied

INPUT: # iterate: `VNFRRIPTGPDSPPT`
OUTPUT: not satisfied

INPUT: Follow-up entry: `APKREAPKPPANTSP`
OUTPUT: not satisfied

INPUT: Try the binder `NFFRKKLGIPRKLKR`
OUTPUT: satisfied

INPUT: How about this binder: `NNQRRKPLLLNIGDH`
OUTPUT: satisfied

INPUT: Then `LTRRFPFLFPFDTRM` ?
OUTPUT: satisfied

INPUT: # iterate: `PELAPKREAPKPPAN`
OUTPUT: not satisfied

INPUT: Quick one: `PSTMDFPKLPSFQNS`
OUTPUT: not satisfied

Cited source for all entries: the supplement of paper PMC4466140
